The origin of these recorded values is patent US7842469B2.

assay: Serum stability in rat serum at 37° C.; type: in vitro ADME; conditions: mono-exponential fit
The molecules listed here are annotated with their Serum τ1/2 (h) rat.
assay.metric: Serum τ1/2 (h) rat

[
  {
    "molecule": "C124A/F262L: RLuc mutant C124A/F262L (protein) MASKVYDPEQRKRMITGPQWWARCKQMNVLDSFINYYDSEKHAENAVIFLHGNAASSYLWRHVVPHIEPVARCIIPDLIGMGKSGKSGNGSYRLLDHYKYLTAWFELLNLPKKIIFVGHDWGAALAFHYSYEHQDKIKAIVHAESVVDVIESWDEWPDIEEDIALIKSEEGEKMVLENNFFVETMLPSKIMRKLEPEEFAAYLEPFKEKGEVRRPTLSWPREIPLVKGGKPDVVQIVRNYNAYLRASDDLPKMFIESDPGFLSNAIVEGAKKFPNTEFVKVKGLHFSQEDAPDEMGKYIKSFVERVLKNEQ",
    "assay.metric": "Serum τ1/2 (h) rat",
    "measurement": 6.4
  },
  {
    "molecule": "F33R/I34M/C124A: RLuc mutant F33R/I34M/C124A (protein) MASKVYDPEQRKRMITGPQWWARCKQMNVLDSRMNYYDSEKHAENAVIFLHGNAASSYLWRHVVPHIEPVARCIIPDLIGMGKSGKSGNGSYRLLDHYKYLTAWFELLNLPKKIIFVGHDWGAALAFHYSYEHQDKIKAIVHAESVVDVIESWDEWPDIEEDIALIKSEEGEKMVLENNFFVETMLPSKIMRKLEPEEFAAYLEPFKEKGEVRRPTLSWPREIPLVKGGKPDVVQIVRNYNAYLRASDDLPKMFIESDPGFFSNAIVEGAKKFPNTEFVKVKGLHFSQEDAPDEMGKYIKSFVERVLKNEQ",
    "assay.metric": "Serum τ1/2 (h) rat",
    "measurement": 0.3
  }
]
